ASSAY TARGET: T1, recombinant human Siglec-15 protein (Homo sapiens, UniProt Q6ZMC9)
T1 construct: purchased Bonopusbio CW70-50 ug
T1 sequence (Q6ZMC9 20-263 limits assumed): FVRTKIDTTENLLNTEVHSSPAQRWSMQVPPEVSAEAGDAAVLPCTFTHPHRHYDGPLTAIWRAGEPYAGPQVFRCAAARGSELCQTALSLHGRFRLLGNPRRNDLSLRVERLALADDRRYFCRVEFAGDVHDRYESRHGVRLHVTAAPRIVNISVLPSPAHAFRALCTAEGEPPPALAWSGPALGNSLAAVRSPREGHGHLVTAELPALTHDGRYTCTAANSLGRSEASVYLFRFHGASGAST
TEST METHOD NOTES: BIACORE surface plasmon resonance binding affinity
REPORTED CONDITIONS: SPR; antibody as ligand, human Siglec-15 as analyte; 1:1 Langmuir model
READOUT KIND: kd (s⁻¹)
Numbers only; they are read as s⁻¹.

// kd value for S15B1-VH1 + VL2: humanized S15B1 antibody, humanized VH1 (SEQ ID NO: 103) with humanized VL2 (antibody, V domains shown) VH: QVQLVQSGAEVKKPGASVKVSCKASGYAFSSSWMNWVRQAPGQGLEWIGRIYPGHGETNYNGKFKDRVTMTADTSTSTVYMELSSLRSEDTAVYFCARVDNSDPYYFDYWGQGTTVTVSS VL: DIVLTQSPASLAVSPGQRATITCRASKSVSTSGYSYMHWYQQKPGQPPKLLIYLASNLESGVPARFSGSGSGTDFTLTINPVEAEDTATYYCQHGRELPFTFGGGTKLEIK : 0.000563
